B1: TRIM63 (parent)
chain: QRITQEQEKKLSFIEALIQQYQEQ

Variants of: B1
test protocol: protein stability index of a GFP-peptide fusion (GPS, HEK-293T) (PSI 1-6); higher = more stable;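 further: lentivirally expressed fusions sorted by FACS into six bins by GFP to DsRed ratio, PSI derived from sequencing read proportions per bin multiplied by bin number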
assay context: c terminus: a fixed tail appended
Collected protein stability index values appear next to each entry.

variant notation	protein stability index
S12F	2.56
E23I	1.54
L11K	1.56
E15L	2.56
Q7M	2.46
A16P	4.08
E23M	1.51
A16T	2.15
A16E	2.95
K10E	3
A16S	2.45
S12Q	2.62
E6M	2.27
Q19I	2.73
I18K	2.42
L17T	3.31
Q5W	1.24
I18Q	1.81
L17S	4.13
K9C	2.29
E15P	3.48
L17R	4.34
Q1A	2.3
S12N	2.74
S12D	2.86
L11D	3.94
I14L	2.23
R2H	2.44
Q7K	1.96
I3Q	2.33
I18V	3.12
Q19G	2.51
Q22F	2.02
S12P	3.91
Q22E	1.5
Q24K	2.06
Q19H	2.04
Q5L	1.68
K10I	2.57
A16M	3.77
S12M	1.86
Q1V	1.79
E23D	2.62
F13P	4.68
R2D	3.23
E23V	2.34
